Recorded values, source patent US4237225A.

system: Bacillus subtilis; test: standard paper-disc inhibition test, zone of inhibition, Bacillus subtilis; format: cell-based; settings: Bacillus subtilis, in vitro
readout label: Zone Diameter (mm)
Your answer should be a plain number; it is taken to be in mm.

Input CC(=O)NC1C(OC2OC(CC(O)C3OC(n4ccc(=O)[nH]c4=O)C(O)C3O)C(O)C(O)C2NC(=O)/C=C/CCCCCCCCCCCC(C)C)OC(CO)C(O)C1O (stereo not shown) [Tunicamycin D] . Output Zone Diameter: 19

Input CC(=O)NC1C(OC2OC(CC(O)C3OC(n4ccc(=O)[nH]c4=O)C(O)C3O)C(O)C(O)C2NC(=O)/C=C/CCCCCCCCCC(C)C)OC(CO)C(O)C1O (stereo not shown) [Tunicamycin A] . Output Zone Diameter: 25

Input CC(=O)NC1C(OC2OC(CC(O)C3OC(n4ccc(=O)[nH]c4=O)C(O)C3O)C(O)C(O)C2NC(=O)/C=C/CCCCCCCCC(C)C)OC(CO)C(O)C1O (stereo not shown) [Tunicamycin C] . Output Zone Diameter: 28

Input CC(=O)NC1C(OC2OC(CC(O)C3OC(n4ccc(=O)[nH]c4=O)C(O)C3O)C(O)C(O)C2NC(=O)/C=C/CCCCCCCCCCC(C)C)OC(CO)C(O)C1O (stereo not shown) [Tunicamycin B] . Output Zone Diameter: 19

====

Test system: Neurospora crassa
Experiment: standard paper-disc inhibition test, zone of inhibition, Neurospora crassa
Type: cell-based
Conditions: in vitro
Description: The zones of inhibition, as determined in these tests, are shown below: […]
readout label: Zone Diameter (mm)
Your answer should be a plain number; it is taken to be in mm.

Recorded Zone Diameter for CC(=O)NC1C(OC2OC(CC(O)C3OC(n4ccc(=O)[nH]c4=O)C(O)C3O)C(O)C(O)C2NC(=O)/C=C/CCCCCCCCCCC(C)C)OC(CO)C(O)C1O (stereo not shown) on Neurospora crassa was 10

Recorded Zone Diameter for CC(=O)NC1C(OC2OC(CC(O)C3OC(n4ccc(=O)[nH]c4=O)C(O)C3O)C(O)C(O)C2NC(=O)/C=C/CCCCCCCCC(C)C)OC(CO)C(O)C1O (stereo not shown) on Neurospora crassa was 10

Recorded Zone Diameter for CC(=O)NC1C(OC2OC(CC(O)C3OC(n4ccc(=O)[nH]c4=O)C(O)C3O)C(O)C(O)C2NC(=O)/C=C/CCCCCCCCCC(C)C)OC(CO)C(O)C1O (stereo not shown) on Neurospora crassa was 10
